The reader will find IC50 measurements below, all made with UniProt Q08881.
Sequence (Q08881 whole entry): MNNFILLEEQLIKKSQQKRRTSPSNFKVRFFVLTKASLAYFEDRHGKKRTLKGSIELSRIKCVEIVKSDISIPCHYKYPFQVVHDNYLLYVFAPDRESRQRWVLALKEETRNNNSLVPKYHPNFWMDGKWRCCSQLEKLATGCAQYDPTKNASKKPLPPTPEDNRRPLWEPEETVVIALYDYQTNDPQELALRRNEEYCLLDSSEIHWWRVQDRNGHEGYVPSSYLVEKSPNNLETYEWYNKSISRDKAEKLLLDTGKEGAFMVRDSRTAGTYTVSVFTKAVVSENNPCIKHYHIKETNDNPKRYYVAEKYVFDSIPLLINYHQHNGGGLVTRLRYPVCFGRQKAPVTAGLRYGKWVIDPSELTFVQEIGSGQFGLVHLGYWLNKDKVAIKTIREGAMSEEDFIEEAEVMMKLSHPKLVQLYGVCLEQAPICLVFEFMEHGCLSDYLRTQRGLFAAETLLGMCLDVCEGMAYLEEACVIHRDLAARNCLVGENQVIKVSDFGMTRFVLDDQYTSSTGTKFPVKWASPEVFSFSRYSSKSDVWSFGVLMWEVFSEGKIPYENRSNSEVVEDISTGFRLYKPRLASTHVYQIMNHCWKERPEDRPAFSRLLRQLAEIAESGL

Problem: Item C=CC(=O)Nc1cc(-c2cnc3[nH]cc(-c4ccnc(OC)c4)c3c2)cc(OC)n1 [Example 40] has what recorded IC50?
Solution: ≤ 1 µM

Problem: Queued: C=CC(=O)Nc1cccc(-c2cnc3[nH]cc(-c4ccc(C(=O)Nc5ccc(C)cc5C)cc4)c3c2)c1 [Example 67]
Solution: > 1 µM

Problem: Queued: C=CC(=O)NC1CN(c2cnc3[nH]cc(-c4ccnc(OC)c4)c3c2)C1 [Example 2]
Solution: ≤ 1 µM

Problem: Queued: COc1cc(NC(=O)/C=C/CN(C)C)cc(-c2cnc3[nH]cc(-c4ccnc(OC)c4)c3c2)c1 [Example 76]
Solution: ≤ 1 µM

Problem: Queued: C=CC(=O)Nc1cncc(-c2cnc3[nH]cc(-c4ccncc4)c3c2)c1 [Example 16]
Solution: ≤ 1 µM

Problem: Queued: COc1cc(-c2c[nH]c3ncc(-c4cccc(NC(=O)/C=C/CN5CCOCC5)c4)cc23)ccn1 [Example 38]
Solution: ≤ 1 µM

Problem: Queued: C=CC(=O)Nc1cc(-c2cnc3[nH]cc(-c4ccnc(OC)c4)c3c2)cc(N2CCOCC2)n1 [Example 41]
Solution: ≤ 1 µM

Problem: Queued: C=CC(=O)Nc1cccc(-c2cnc3[nH]cc(-c4ccc(C(=O)Nc5ccc(C(C)C)cc5)cc4)c3c2)c1 [Example 74]
Solution: ≤ 1 µM

Problem: Queued: COc1cc(-c2c[nH]c3ncc(-c4cccc(NC(=O)/C(C#N)=C/C(C)C)c4)cc23)ccn1 [Example 87]
Solution: ≤ 1 µM

Problem: Queued: C=CC(=O)Nc1cccc(-c2cnc3[nH]cc(-c4ccnc(OC)c4)c3c2)c1 [Example 6]
Solution: ≤ 1 µM

Problem: Queued: C=CC(=O)NC1CN(c2cnc3[nH]cc(-c4ccccc4)c3c2)C1 [Example 1]
Solution: ≤ 1 µM

Problem: Queued: C=C(C)C(=O)Nc1cccc(-c2cnc3[nH]cc(-c4ccnc(OC)c4)c3c2)c1 [Example 81]
Solution: > 1 µM

Problem: Queued: C=CC(=O)NC1CN(c2cnc3[nH]cc(-c4ccnc(C)c4)c3c2)C1 [Example 4]
Solution: ≤ 1 µM

---

- System: phospho-PLCγ1 in Jurkat cells
- Test method notes: ITK target modulation PLC-γ assay (phospho-PLCγ1, αCD3-stimulated Jurkat cells)
- Type: cell-based, human
- Experimental context: Homo sapiens, 1 hour compound incubation, αCD3 Dynabeads stimulation 8 minutes, MSD phospho-PLCγ1, read-out: PLC-γ Inhibition IC50
- Procedure: Jurkat cells, an immortalized human T-lymphocyte cell line, were maintained in RPMI media, 10% FBS, 1% pen/strep/glutamine (growth media). Cells were plated in growth media plus 50 μM β-mercaptoethanol at 400,000 cells per well of a 96 well plate. Compounds were serially diluted into DMSO, and then into media to concentrations 10× that of the final assay concentration. Compounds were then added to the cells with the final assay DMSO concentration being 0.1%. Cells were incubated for 1 hour at 37° C. […]
pIC50: −log10 of the molar value.
Consider the following compounds; for each one, report its pIC50.

Problem: Item C=CC(=O)NC1CN(c2cnc3[nH]cc(-c4ccncc4)c3c2)C1 [Example 10] has what recorded pIC50?
Solution: < 5.30

Problem: Queued: C=CC(=O)Nc1cccc(-c2cnc3[nH]cc(-c4ccnc5ccccc45)c3c2)c1 [Example 64]
Solution: 5.30 to 6.00

Problem: Queued: C=CC(=O)Nc1cc(OC)cc(-c2cnc3[nH]cc(-c4ccncc4)c3c2)c1 [Example 22]
Solution: > 6.00

Problem: Queued: N#C/C(=C\c1cccc(-c2cnc3[nH]cc(-c4ccc(F)nc4)c3c2)c1)C(N)=O [Example 63]
Solution: < 5.30

Problem: Queued: C=CC(=O)NC1CN(c2cnc3[nH]cc(-c4ccnc(NC)c4)c3c2)C1 [Example 36]
Solution: < 5.30

Problem: Queued: C=CC(=O)Nc1cc(-c2cnc3[nH]cc(-c4ccncc4)c3c2)cc(C(F)(F)F)c1 [Example 20]
Solution: > 6.00

Problem: Queued: C=CC(=O)Nc1cccc(-c2cnc3[nH]cc(-c4cccc5[nH]ccc45)c3c2)c1 [Example 71]
Solution: 5.30 to 6.00

Problem: Queued: C=CC(=O)Nc1cccc(-c2cnc3[nH]cc(-c4cccc5occc45)c3c2)c1 [Example 82]
Solution: < 5.30
